Origin of measurements: paper PMC9315497

# study.system: T1, Ino2pDBD WT;Ino4pDBD WT (Saccharomyces cerevisiae (genomic DNA …, UniProt P26798;P13902 230-304;40-117, |))
# T1 sequence 1: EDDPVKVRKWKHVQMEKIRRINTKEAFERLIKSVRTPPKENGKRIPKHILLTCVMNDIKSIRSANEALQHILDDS
# T1 sequence 2: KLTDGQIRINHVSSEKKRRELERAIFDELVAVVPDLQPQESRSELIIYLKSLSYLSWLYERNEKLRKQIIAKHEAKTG
# test.details: ITC; 10 C; 20 mM Tris-HCl pH 8.0, 100 mM NaCl (buffer B); EMSA 1.5 uM DNA, 1.5-150 uM protein, 1 h on ice; ITC at 10 C, 400 uM DNA into 20 uM protein
# condition.set: protein: recombinant;recombinant; tags: N-terminal His6;none (with His-Ino2p); copies: 1;1; 14 bp with 5' overhang 1 nt at each end
measurement.name: pKd
Recall that pKd is obtained by taking minus log10 of the concentration measured in molar.

Need pKd, item 15bp-GC promoter DNA (dsDNA) DNA 1: GATTTTCACATGCAG DNA 2: CCTGCATGTGAAAAT
6.13
